FYI, the data here is from PubChem BioAssay.

# Tested on: Human papillomavirus type 1a E7 protein (residues 1-88)
# test-name: HPV1a E7 small-molecule binders, primary screen, biochemical, small-molecule microarray, residues 1-88, 635 nm (AID 1129)
# protocol-conditions: small-molecule microarray binding, fluorescence 635 nm; higher = more signal
Rule: composite z-score under 1 gives no, otherwise yes.

Would you please look over these solved cases?
CC(CO)N1C(=O)[C@@H]2C3C(=O)OCCC/C=C\[C@H]3OC23C=CCN(C(C)(C)C)C(=O)[C@@H]13 (stereo not given in full): no
COc1cc2c(cc1OC)CN(C(=O)[C@H]1[C@@H]3C(=O)O[C@@H](c4ccccc4)[C@@H](c4ccccc4)N3[C@@H](c3ccc(O)cc3)[C@]13C(=O)Nc1ccc(C#CCCO)cc13)CC2: yes
COCCOC(=O)N1C(=O)[C@@]2(c3cc(C#Cc4ccc(OC)cc4)ccc31)[C@H](c1ccccc1OCCO)N1[C@H](c3ccccc3)[C@H](c3ccccc3)OC(=O)[C@H]1[C@@H]2C(=O)NC[C@H](O)c1ccccc1: yes
C=CCOC(=O)[C@H]1[C@@H]2C(=O)O[C@@H](c3ccccc3)[C@@H](c3ccccc3)N2[C@@H](c2ccc(OCCOC(=O)[C@H]3C[C@H]4C(=O)N[C@@H](CCCCNC(C)=O)C(=O)N4[C@H]3c3cccc(OCCO)c3)cc2)[C@]12C(=O)Nc1ccccc12: yes

Could you now look at the following molecule, please?
**Q:** State whether the measured composite z-score reaches 1, counting equality as reaching it, for `O=C1C[C@@](C(=O)NCC(F)(F)F)(c2ccc([N+](=O)[O-])cc2)[C@@H](c2ccc(CO)cc2I)N1C1CCCCC1`
**A:** yes

---

Kindly supply the reported composite z-score values for the records listed here.
# Tested on: Noggin (protein binding on small-molecule microarray)
# test-name: Noggin binders on small-molecule microarray, primary screen, biochemical, 635/667 nm fluorescence (AID 1095);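 note: score merges 667 nm feature fluorescence with signal to noise over triplicate slides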
# protocol-conditions: 635 nm fluorescence, higher = more signal

Some entries whose results are on file:
C=C(CCCC)/C(=C/C[C@H](OC(=O)c1ccncc1)c1ccccc1OCCO)c1cnc2ccccc2c1: 1.27
C=CCOC(=O)[C@H]1[C@@H]2C(=O)O[C@@H](c3ccccc3)[C@@H](c3ccccc3)N2[C@@H](c2ccc(OCCOC(=O)[C@H]3C[C@H]4C(=O)N[C@@H](CCCC[N+](C)(C)C)C(=O)N4[C@H]3c3ccc(O)cc3)cc2)[C@]12C(=O)Nc1ccc(I)cc12: 0.733
COCCOC(=O)N1C(=O)[C@@]2(c3ccccc31)[C@H](C(=O)N1CCc3cc(OC)c(OC)cc3C1)[C@H]1C(=O)O[C@H](c3ccccc3)[C@H](c3ccccc3)N1[C@@H]2c1ccc(OCCO)cc1: 0.94

Dear reader, for each entry below, please note its composite z-score.
1. COC(=O)[C@@]1(Cc2ccc(F)cc2)[C@H]2c3cc(C(=O)N(C)C)n(Cc4ccc(Cl)c(C(F)(F)F)c4)c3C[C@H]2CN1C(=O)c1ccccc1
2. COC(=O)[C@@]1(Cc2ccccc2)[C@H]2c3cc(C(=O)N(C)C)n(Cc4ccsc4Br)c3C[C@H]2CN1C(=O)c1ccccc1
3. O=C(NCCO)C1=C[C@H](Oc2ccccc2I)[C@@H](O)[C@H](N(Cc2ccco2)C(=O)Cc2ccccc2)C1

**A:**
1: -0.602; 2: 0.0244; 3: 0.535
